Reported Tm values for the following sequences.
- procedure text: melting temperature; fluorescence melt of hairpins on a sequencing array, two-state fit, raised by 9.35 °C to match UV melts
- condition context: sodium 0.088 M

| sequence | Tm, °C |
| --- | --- |
| GATCTAGCTCTAGATC ((((((....)))))) | 45.2 |
| GCCGTAGGAAACTATGGC (((.(((....))).))) | 51.3 |
| GCGTTCGCACGC ((((....)))) | 56.5 |
| GATCTAGGAAACTAGACC (.(((((....))))).) | 29.3 |
| GATCAGGTCACTGATC ((((((....)))))) | 59.4 |
| GTAGGCGAAAGCCCTTAC ((((((....)))..))) | 37.9 |
| GACTCGCGAAAGCGCGTC (((.(((....))).))) | 55.9 |
| GATCAGGTATCTGATC ((((((....)))))) | 57.5 |
| GATCGGATAACCGATC ((((((....)))))) | 56.2 |
| GATCGGCATCCCGATC ((((((....)))))) | 54.1 |
| GCGGTAGACCGC ((((....)))) | 60.8 |
| GGCAGGCCGAAAGGCGCC (((..(((....)))))) | 59.6 |
| GGTTAGGGAAACCCAACC ((((.((....)).)))) | 41 |
| GCCCCCGAAAGGGCCGGC ((((((....)))..))) | 54.3 |
| GAGGCCGAAAGGCGGCTC ((((((....)))..))) | 55.9 |
| GGTGGGCGAAAGCCGACC (((.(((....))).))) | 61.9 |
| GATGCGCGAAAGCGATC (((.(((....)))))) | 41.3 |
| CGCCCGGAAACGGAGGCG ((((((....)))..))) | 53.8 |
| GATCCTACCGAGGATC ((((((....)))))) | 51.2 |
| GGAGGACGAAAGTCGTCC (((.(((....))).))) | 59.4 |
| GCAGCTCGAAAGAGTTGC (((.(((....))).))) | 59.6 |
| CGCGGACTGCTCCGCG ((((((....)))))) | 62.4 |
| GCCACGCCGAAAGGCGGC (((..(((....)))))) | 48.3 |
| GTCTACCCGAAAGGGGAC (((..(((....)))))) | 36.2 |
| GTAGCACGAAAGTGGTAC (((.(((....))).))) | 60.9 |
| GCCATGCGAAAGCATCGC ((.((((....)))).)) | 49.5 |
| GATCAGGGAGCTGATC ((((((....)))))) | 52.4 |
| GACACAGGAAACTGCGTC (((.(((....))).))) | 45.3 |
| GCCACCGAAAGGTCAGGC ((((((....)))..))) | 48.4 |
| GAAGCCGAAAGGCATTTC ((((((....)))..))) | 25.9 |
| GATCAGACATCTGATC ((((((....)))))) | 48.2 |
| GCTATTGCGAAAGCAAGC (((..(((....)))))) | 42.2 |
| GGTAGTGGAAACATTACC ((((.((....)).)))) | 41.6 |
| GTACTGCGAAAGCATTAC (((.(((....))).))) | 41.7 |
| GTTGGGGGAAACCCTGAC ((..(((....)))..)) | 35.6 |
| GGTGTTGGAAACAACGTC (..((((....))))..) | 47.2 |
| GCAGTGACGAAAGTCTGC (((..(((....)))))) | 48 |
| GAAGACGAAAGTCCGTTC ((((((....)))..))) | 27.6 |
| GATCGAGGACTCGATC ((((((....)))))) | 60.1 |
| GATACCGAAAGGTACATC ((((((....)))..))) | 26.9 |
| GCACACGAAAGTGATTGC ((((((....)))..))) | 39.8 |
| GATAGGCGAAAGCCGATC (((.(((....))).))) | 55.5 |
| GGCGACGAAAGTCTTGCC ((((((....)))..))) | 48.9 |
| GGCCCTGGAAACGGGGCC (((((.(....).))))) | 67.5 |
| GCTGGGCCGAAAGGCAGC (((..(((....)))))) | 48.5 |
| GATCATACACATGATC ((((((....)))))) | 47.2 |
| GCAGAGCGAAAGCACTGC ((((.((....)).)))) | 67.4 |
| GATCACGGAAACGTAATC (((.(((....))).))) | 31.5 |
| GTCCACGGAAACGTGGGC (.(((((....))))).) | 62.1 |
| GTGCCCGGAAACGAGCAC ((((.((....)).)))) | 52.8 |

###

- procedure text: melting temperature; fluorescence melt of hairpins on a sequencing array, two-state fit, raised by 9.35 °C to match UV melts
- condition context: sodium 0.088 M
Reported Tm values for the following sequences.
endpoint: Tm (°C)

| sequence | result value |
| --- | --- |
| GGGCTCGAAAGAGTGCCC ((((((....)))..))) | 51.3 |
| GATCATGGAAACACGATC ((((.((....)).)))) | 33.8 |
| GCGTAGCGAAAGCCATGC ((.(.((....)).).)) | 35.6 |
| GTATCAGCGAAAGCTTAC (((..(((....)))))) | 26.3 |
| GCCGGGGGAAACCTCGGC ((((.((....)).)))) | 66.7 |
| GCCTAAGGAAACTCAGGC ((((.((....)).)))) | 35.6 |
| GTTGGGGGAAACCCCAAC (((((((....))))))) | 65.6 |
| GATCAGGGGGCTGATC ((((((....)))))) | 49.7 |
| GTGAGCGAAAGCTGACAC ((((((....)))..))) | 41.2 |
| GATCAGCGGCCTGATC ((((((....)))))) | 49.8 |
| GGGATAGGAAACTATTCC ((.((((....)))).)) | 40.7 |
| GCTCCCGGAAACAGGAGC (((((.(....).))))) | 49.5 |
| GCTATGGCGAAAGCCAGC (((..(((....)))))) | 42.6 |
| GGATTGTCGAAAGACTCC (((..(((....)))))) | 30.9 |
| GTGAGCGAAAGCTGGCAC ((((((....)))..))) | 43 |
| GATCGCCCGTGCGATC ((((((....)))))) | 64 |
| GATCATGTGAATGATC ((((((....)))))) | 54.6 |
| GATCATAGCGATGATC ((((((....)))))) | 46.9 |
| GCTAGGCGAAAGCCTCGC ((.((((....)))).)) | 58.9 |
| GGGGTCGAAAGACCTCCC ((((((....)))..))) | 51.4 |
| GATCCTGTTTAGGATC ((((((....)))))) | 52.6 |
| GATCGATTTTCGATC ((((((...)))))) | 54.4 |
| GGTTAGGGAAACCTAGTC (..((((....))))..) | 28.7 |
| GAATCGCGAAAGCGCTTC (((.(((....))).))) | 43.2 |
| GTGTTCGAAAGAATGCAC ((((((....)))..))) | 33.5 |

###

Reported Tm values for the following sequences.
- procedure text: melting temperature; fluorescence melt of hairpins on a sequencing array, two-state fit, raised by 9.35 °C to match UV melts
- condition context: sodium 0.088 M

| sequence | Tm, °C |
| --- | --- |
| GCTTCCGGAAACAGAAGC (((((.(....).))))) | 41.9 |
| GCCCAGCGAAAGCTTTGC ((..(((....)))..)) | 37.6 |
| GATCATGGCATGATC ((((((...)))))) | 51.3 |
| GTATTCCGAAAGGATTAC (((.(((....))).))) | 43.5 |
| GTACATGAAAATGTAC ((((((....)))))) | 51.2 |
| GCTGCAGGAAACTACAGC ((((.((....)).)))) | 45.6 |

###

- procedure text: melting temperature; fluorescence melt of hairpins on a sequencing array, two-state fit, raised by 9.35 °C to match UV melts
- condition context: sodium 0.088 M
// thresholds for Tm classes: low end = under 40 °C, middle = from 40 °C up to 60 °C, high end = 60 °C and over

| sequence | assigned label |
| --- | --- |
| GGGATGCGAAAGCAACCC (((.(((....))).))) | high end |
| GTGCGCGAAAGCGGACAC ((((((....)))..))) | high end |
| GAAGGCGGAAACGCCCTC ((.((((....)))).)) | low end |
| GACCACGGAAACATGGCC (.(((.(....).))).) | low end |
| GATAAGGCGAAAGCCATC (((..(((....)))))) | low end |
| GGGCTCGGAAACGGGCCC ((((.((....)).)))) | high end |
| GATCTGCCGGCAGATC ((((((....)))))) | high end |
| GCAGCCGAAAGGCATTGC ((((((....)))..))) | middle |
| GCGTCCGAAAGGAGCGC ((((((....))).))) | high end |
| GAAGGGCCGAAAGGCTTC (((..(((....)))))) | low end |
| GTGCAAGGAAACCTGCAC (((((.(....).))))) | middle |
